# UMP listing for each entry below
Test system: P. falciparum 3D7 trophozoites
Assay: Metabolomic fingerprint profiling LC-MS
Assay type: cell-based, Plasmodium falciparum
Details: metabolite UMP; S2 Table Metabolomics, change in metabolite level after compound treatment

Use these answered entries as a reference point.
Cc1ccc(N2C(=O)C3C(C2=O)C2(c4ccccc4)C(=O)C3(c3ccccc3)C(c3ccccc3)=C2c2ccccc2)cc1 (stereo not shown): -0.3962
Cc1cc(Nc2ccc3ccccc3c2)n2ncnc2n1: -1.675
COc1ccc(C2=C(c3ccc(OC)cc3)C3(c4ccccc4)C(=O)C2(c2ccccc2)C2C(=O)N(c4ccc(C)cc4)C(=O)C23)cc1 (stereo not shown): 0.1142

From here, focus on the item given below.
Value of UMP reported for the compound CCOC(=O)c1cnc2c(C)cc(C)cc2c1Nc1ccc(OC)c(OC)c1 is -1.283
